Origin of values: ChEMBL document CHEMBL1201862

test system: BJ; assay: BJ-TERT-LT-ST fibroblast viability loss – cell-based, RAS-independent, luminescence, dose response (AID 1935); format: functional; settings: Homo sapiens;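 further: BJ fibroblasts immortalized with TERT plus LT and ST oncogenes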
Calls of active or inactive are those of the source.
Reported Endpoint: EC50

                              smiles_string  reported_endpoint      experimental_result
0  COC(=O)C1=C(c2cc3ccccc3o2)C[C@@H]2CC[C@H]1N2C(=O)N1CCCCC1               EC50         20.9 µM (active)
1        CCOC(=O)c1sc(NC(=O)c2ccccc2OC)nc1C               EC50  > 150 µM (inconclusive)
2           Nc1nc(CCl)nc(Nc2ccc3ccccc3c2)n1               EC50   8.32 µM (inconclusive)
3  CCOC(=O)/C(=C\c1cccnc1)C(=O)c1cc(C(C)=O)c(Nc2ccccc2)s1               EC50   6.68 µM (inconclusive)
4  Cc1ccc(-c2cc(-c3ccccc3)cc(-c3ccccc3)[n+]2-c2ccccc2)cc1.[O-][Cl+3]([O-])([O-])[O-]               EC50         4.96 µM (active)
5  CCOC(=O)Nc1nc(-c2ccccc2)c(C(=O)c2ccccc2)s1               EC50   4.12 µM (inconclusive)

====

Target: UniProt:Q96LD8
Sequence (Q96LD8 whole entry): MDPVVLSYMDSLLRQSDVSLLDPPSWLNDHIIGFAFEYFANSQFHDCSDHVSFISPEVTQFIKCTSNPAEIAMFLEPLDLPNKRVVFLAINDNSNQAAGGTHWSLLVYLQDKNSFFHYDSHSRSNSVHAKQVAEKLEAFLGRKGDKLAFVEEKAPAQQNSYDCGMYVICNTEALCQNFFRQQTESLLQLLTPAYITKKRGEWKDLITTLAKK
Format: functional
Activity calls are given as the source filed them.
Outcome codes: active, inactive

>>> print(df.to_string())
                                   compound  assigned_category
0          COc1ccc(N2C(=O)Cc3ccccc3C2=O)cc1           inactive
1  COC/C=C/C1=CC2=CC(=O)C(C)(OC(=O)c3cnc4ccccc4n3)C(=O)C2=CN1CCOC (stereo unspecified)             active
2    CC(C)(C)OC(=O)N1Cc2ccccc2C[C@H]1C(=O)O           inactive
3                COc1cc(=O)n(C)c2c(O)cccc12           inactive
4  COc1ccc(NC(=O)NNc2cc(N3CCOCC3)nc(N3CCOCC3)n2)cc1             active
5  Cc1ccc(N2C(=O)[C@@H]3[C@H](C2=O)C2c4ccccc4C=CN2[C@@H]3C(=O)c2ccco2)cc1 (stereo partly specified)             active

====

test: viability loss in HEK293 cells – cell-based, plate reader, cherry-picked samples, cytotoxicity control, dose response (AID 743446); format: functional
Active and inactive are the calls of the source.
Labels: yes (1) = active, no (0) = inactive

>>> df
                                   compound  assigned_category
0              Cc1ccc(Nc2nc3ccccc3s2)c(C)c1             no (0)
1       Cc1csc(NC(=O)c2ccc(N3CCCC3=O)cc2)n1             no (0)
2  CC1CCCN(c2ncnc3c2cnn3-c2ccc(Cl)cc2)C1 (centres undefined)             no (0)
3  CC1CC(C)(O)CC(C(O)CC2CC(=O)NC(=O)C2)C1=O (centres undefined)            yes (1)

====

Below is a list of entries, each paired with its recorded AC50 value.
molecular target: UniProtKB P33261; assay: Cytochrome panel assay with activity outcomes. Panel member name: p450-cyp2c19 Compounds with AC50 equal or less than 10 uM are considered active; type: functional; details: read-out: AC50
Sequence (P33261 whole entry): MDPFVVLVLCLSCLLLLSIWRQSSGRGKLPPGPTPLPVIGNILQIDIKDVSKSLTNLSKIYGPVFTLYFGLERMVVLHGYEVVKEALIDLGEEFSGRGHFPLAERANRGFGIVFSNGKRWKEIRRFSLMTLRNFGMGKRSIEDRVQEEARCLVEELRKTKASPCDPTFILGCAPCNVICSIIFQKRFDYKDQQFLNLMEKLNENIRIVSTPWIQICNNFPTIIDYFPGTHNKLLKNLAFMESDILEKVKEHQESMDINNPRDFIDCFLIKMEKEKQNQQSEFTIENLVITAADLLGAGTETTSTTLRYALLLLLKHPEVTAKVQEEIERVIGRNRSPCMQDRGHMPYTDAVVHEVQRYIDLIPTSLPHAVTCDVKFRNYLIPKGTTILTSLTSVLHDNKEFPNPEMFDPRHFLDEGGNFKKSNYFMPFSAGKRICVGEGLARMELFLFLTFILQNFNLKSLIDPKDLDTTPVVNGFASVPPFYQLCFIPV
Reported Endpoint: AC50

In [3]: df
Out[3]:
                                    compound  reported_endpoint        experimental_result
 0           CCOC(=O)CSc1n[nH]c(-c2cccnc2)n1               AC50     11.2 µM (inconclusive)
 1  CC(C)(C)c1ccc(OCC(=O)NNC(=O)Cc2cccs2)cc1               AC50       20 µM (inconclusive)
 2  COC(=O)[C@@]1(Cc2ccc(OC)cc2)[C@H]2c3cc(C(=O)N4CCCC4)n(Cc4nc5ccccc5[nH]4)c3C[C@H]2CN1C(=O)c1ccccc1               AC50       20 µM (inconclusive)
 3  CC(=O)NCCNc1nc(-c2cccc(NS(C)(=O)=O)c2)nc2ccccc12               AC50     39.8 µM (inconclusive)
 4         CCOC(=O)c1sc(NC(C)=O)nc1-c1ccccc1               AC50       10 µM (inconclusive)
 5          CN1CCC(=C2c3ccccc3Sc3ccccc32)CC1               AC50     15.8 µM (inconclusive)
 6  CCCNC(=O)Cn1cnc2sc(C(=O)Nc3ccc4c(c3)OCO4)c(C)c2c1=O               AC50  0.00562 µM (inconclusive)
 7  CCOC(=O)C1=C(c2ccccc2)N=c2s/c(=C\c3cc(OC)c(OC)c(OC)c3)c(=O)n2C1c1cccs1 (stereo not given)               AC50    0.631 µM (inconclusive)
 8   O=c1c(O)c(-c2ccc(O)cc2)oc2cc(O)cc(O)c12               AC50     6.31 µM (inconclusive)
 9  COc1cc(/C=N\Nc2nc3ccccc3[nH]2)cc(OC)c1OC               AC50     17.8 µM (inconclusive)
10  O=C(Nc1cccc(-c2nc3ncccc3o2)c1)c1sc2ccccc2c1Cl               AC50    0.355 µM (inconclusive)
11           Cc1n[nH]c(C)c1N=Nc1cc(Cl)ccc1Cl               AC50     1.12 µM (inconclusive)
12  COc1ccc(NC(=O)COC(=O)Cn2c(C)nc3ccccc32)cc1OC               AC50     3.55 µM (inconclusive)
13    C/C(=N\NC(=O)c1cccc(Br)c1)c1ccc(Br)cc1               AC50    0.224 µM (inconclusive)
14          CCCC(=O)NNC(=O)CCC(=O)NCc1ccccc1               AC50     39.8 µM (inconclusive)

====

IC50 reference
target: Fatty acid synthase (Homo sapiens, UniProt P49327); assay: inhibition of human FAS-TE enzyme activity – biochemical, endpoint fluorescence intensity, uHTS hits, dose response (AID 624327); assay type: functional;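 further: fluorescence from hydrolysis of an O-methyl fluorescein acyl ester substrate by the enzyme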
Sequence (P49327 whole entry): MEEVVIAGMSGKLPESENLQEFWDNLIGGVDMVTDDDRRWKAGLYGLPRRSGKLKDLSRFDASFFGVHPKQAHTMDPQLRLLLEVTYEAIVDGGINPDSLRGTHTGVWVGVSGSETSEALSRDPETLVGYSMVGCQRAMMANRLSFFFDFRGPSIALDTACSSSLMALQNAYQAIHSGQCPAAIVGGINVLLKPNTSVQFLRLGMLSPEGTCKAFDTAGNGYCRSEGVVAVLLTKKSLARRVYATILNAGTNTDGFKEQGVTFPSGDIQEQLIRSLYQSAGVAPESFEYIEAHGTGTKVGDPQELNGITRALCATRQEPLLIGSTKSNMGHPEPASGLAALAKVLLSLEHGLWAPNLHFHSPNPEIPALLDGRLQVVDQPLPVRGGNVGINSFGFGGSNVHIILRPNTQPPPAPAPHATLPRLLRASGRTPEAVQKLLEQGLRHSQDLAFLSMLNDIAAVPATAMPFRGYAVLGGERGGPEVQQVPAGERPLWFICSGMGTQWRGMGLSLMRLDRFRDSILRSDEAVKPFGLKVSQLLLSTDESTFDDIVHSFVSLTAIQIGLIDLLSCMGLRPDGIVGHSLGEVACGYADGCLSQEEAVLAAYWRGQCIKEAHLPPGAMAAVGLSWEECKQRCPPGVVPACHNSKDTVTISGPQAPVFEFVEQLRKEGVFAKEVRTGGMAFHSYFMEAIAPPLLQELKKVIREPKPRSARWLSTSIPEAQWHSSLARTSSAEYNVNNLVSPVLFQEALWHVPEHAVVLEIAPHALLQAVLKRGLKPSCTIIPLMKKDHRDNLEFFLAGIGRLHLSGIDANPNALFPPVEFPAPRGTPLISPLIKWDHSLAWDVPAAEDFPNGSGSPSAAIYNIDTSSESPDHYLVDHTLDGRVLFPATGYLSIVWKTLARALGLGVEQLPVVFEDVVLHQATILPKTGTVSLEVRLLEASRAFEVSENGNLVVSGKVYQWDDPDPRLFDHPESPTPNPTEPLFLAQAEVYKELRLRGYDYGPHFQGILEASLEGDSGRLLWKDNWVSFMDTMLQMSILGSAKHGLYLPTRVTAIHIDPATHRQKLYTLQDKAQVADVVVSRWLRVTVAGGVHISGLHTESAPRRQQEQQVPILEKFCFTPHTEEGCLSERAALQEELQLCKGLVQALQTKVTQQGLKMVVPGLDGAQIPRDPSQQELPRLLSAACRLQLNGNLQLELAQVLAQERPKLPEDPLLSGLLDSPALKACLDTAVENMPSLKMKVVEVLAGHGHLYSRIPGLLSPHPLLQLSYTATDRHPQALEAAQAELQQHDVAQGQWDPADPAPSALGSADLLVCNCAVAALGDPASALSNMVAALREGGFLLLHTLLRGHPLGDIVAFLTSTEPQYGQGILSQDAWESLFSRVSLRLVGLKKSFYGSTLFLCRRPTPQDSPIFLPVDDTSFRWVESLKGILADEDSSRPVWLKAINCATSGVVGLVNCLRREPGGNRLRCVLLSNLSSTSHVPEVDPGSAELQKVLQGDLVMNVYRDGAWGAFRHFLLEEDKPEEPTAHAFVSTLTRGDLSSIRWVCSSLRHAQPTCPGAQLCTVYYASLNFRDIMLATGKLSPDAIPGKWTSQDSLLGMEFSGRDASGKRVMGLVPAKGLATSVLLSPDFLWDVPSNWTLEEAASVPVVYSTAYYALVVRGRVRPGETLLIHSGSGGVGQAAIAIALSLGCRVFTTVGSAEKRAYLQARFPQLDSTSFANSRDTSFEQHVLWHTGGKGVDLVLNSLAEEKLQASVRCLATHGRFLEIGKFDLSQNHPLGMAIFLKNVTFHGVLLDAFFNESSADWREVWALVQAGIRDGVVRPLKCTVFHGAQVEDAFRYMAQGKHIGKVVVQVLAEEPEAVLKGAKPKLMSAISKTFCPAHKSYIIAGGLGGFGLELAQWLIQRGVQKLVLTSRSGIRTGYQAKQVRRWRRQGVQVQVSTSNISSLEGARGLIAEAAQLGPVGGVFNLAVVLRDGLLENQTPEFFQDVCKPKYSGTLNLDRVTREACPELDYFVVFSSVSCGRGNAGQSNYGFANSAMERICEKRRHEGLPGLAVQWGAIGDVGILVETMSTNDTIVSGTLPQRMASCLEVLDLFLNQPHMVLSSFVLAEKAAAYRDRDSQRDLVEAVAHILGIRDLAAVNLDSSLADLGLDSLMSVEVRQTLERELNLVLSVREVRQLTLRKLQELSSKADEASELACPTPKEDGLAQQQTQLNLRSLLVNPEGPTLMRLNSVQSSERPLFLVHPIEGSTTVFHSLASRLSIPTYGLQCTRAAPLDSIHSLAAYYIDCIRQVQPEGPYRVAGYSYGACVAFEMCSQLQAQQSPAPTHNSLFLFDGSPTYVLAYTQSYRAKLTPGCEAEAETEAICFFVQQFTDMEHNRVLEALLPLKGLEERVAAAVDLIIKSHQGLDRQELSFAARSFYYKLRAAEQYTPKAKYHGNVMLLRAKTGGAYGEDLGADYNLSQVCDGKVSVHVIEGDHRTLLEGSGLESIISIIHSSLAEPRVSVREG
The source made the active and inactive calls.
Reported Endpoint: IC50

In [3]: df
Out[3]:
                                   compound  experimental_result
0  O=[N+]([O-])c1ccc(CN2CC(N3CCC(Cc4ccccc4)CC3)CS2(=O)=O)cc1 (configuration not stated)     9.92 µM (active)
1  Cc1ccc(S(=O)(=O)Nc2ccccc2C(=O)Nc2nc(-c3ccc(F)cc3)cs2)cc1     9.65 µM (active)
2  O=C(c1cccc(S(=O)(=O)N2CCCC2)c1)c1cccc(S(=O)(=O)N2CCCC2)c1     12.1 µM (active)
3  CCc1ccc(NS(=O)(=O)c2cc3c(cc2C)n(C)c(=O)c(=O)n3C)cc1     2.42 µM (active)
4  Cc1ccc([N+](=O)[O-])cc1NC(=O)CCCOc1ccccc1     10.1 µM (active)
5  CC(=O)c1ccc(N(C(=O)c2ccco2)C(C(=O)NC2CCCC2)c2ccc(N3CCOCC3)cc2)cc1 (configuration not stated)     15.5 µM (active)
6         Cc1nc2scc(-c3ccc(Cl)cc3)c2c(=O)o1     1.32 µM (active)

====

assay: P. falciparum Dd2 growth inhibitors, dose response, SYBR Green, cherry-picked samples (AID 1159567); type: functional, cell-based
The source made the active and inactive calls.
AC50 for assorted compounds
Reported Endpoint: AC50

>>> print(df.to_string())
                              smiles_string  experimental_result
0  Cc1ccccc1S(=O)(=O)N1CC(=O)N2[C@H](CO)[C@H](c3ccc(C#CC4CC4)cc3)[C@@H]2C1     8.89 µM (active)
1  O=C(Nc1cccc(F)c1)N1CC(=O)N2[C@H](C1)[C@@H](c1ccc(C#CC3CC3)cc1)[C@@H]2CO     8.07 µM (active)
2  O=C(c1cccc(F)c1)N1CC(=O)N2[C@H](CO)[C@H](c3ccc(-c4cccnc4)cc3)[C@H]2C1    0.326 µM (active)
3  C[C@H](CO)N1C[C@H](C)[C@H](CN(C)S(=O)(=O)c2cccs2)OCc2ccccc2-c2c(n(C)c3ccccc23)C1=O     26.1 µM (active)
